- System: Fibroblast
- Test: Multiplex assay against human fibroblast
- Format: toxicity, cell-based
- Test Parameters: 12 h, 1 µM, compound concentration 1 uM, replicate 2
Grouping by measured Population Mitotic Cells (%) is done with the following cut points: bottom bin: < 60%; middle bin: ≥ 60% and < 70%; top bin: ≥ 70%

A selection of reference data follows.
[
  {
    "Molecule": "CC(C)(C)c1ccc(S(=O)(=O)Nc2ccc(Cl)cc2C(=O)c2cc[n+]([O-])cc2)cc1",
    "Assigned Label": "bottom bin"
  },
  {
    "Molecule": "CN1CCN(c2nc3cc(C(F)(F)F)ccc3n3cccc23)CC1.O=C(O)/C=C\\C(=O)O.O=C(O)/C=C\\C(=O)O",
    "Assigned Label": "top bin"
  },
  {
    "Molecule": "N[C@@]1(C(=O)O)CO[C@H]2[C@H](C(=O)O)[C@H]21",
    "Assigned Label": "bottom bin"
  },
  {
    "Molecule": "Cc1nc2ccc(Oc3ccc(F)cc3)cc2c(=O)n1C[C@H]1CCCN(C(C)C)C1.Cl",
    "Assigned Label": "bottom bin"
  }
]

Categorize the following entry: `CN(C)CCCc1cc(C(=O)Nc2ccc(-c3ccncc3)cc2)ccc1O.Cl.Cl` bottom bin

Categorize the following entry: `C[C@H](NC(=O)c1c(C(F)F)nn(C)c1Oc1cccc(C(F)(F)F)c1)c1ccc(C(=O)O)cc1` top bin

Categorize the following entry: COc1ccc2c(c1)C(C(=O)N(Cc1ccc(N(C)C)cc1)c1ccc(C(C)C)cc1)CCC2.Cl (configuration not stated) bottom bin

Categorize the following entry: CCCN1CCC[C@@H]2Cc3n[nH]cc3C[C@H]21.Cl [QUINPIROLE HYDROCHLORIDE] bottom bin

Categorize the following entry: `CC[C@H]1OC(=O)[C@H](C)[C@@H](O[C@H]2C[C@@](C)(OC)[C@@H](O)[C@H](C)O2)[C@H](C)[C@@H](O[C@@H]2O[C@H](C)C[C@H](N(C)C)[C@H]2O)[C@@]2(C)CC(C)=C(O2)[C@H](C)[C@@H](O)[C@]1(C)O` bottom bin

Categorize the following entry: `O=C(O)c1cc2ccccc2c(Cc2c(O)c(C(=O)O)cc3ccccc23)c1O` middle bin

Categorize the following entry: Cl.Clc1ccc2nsnc2c1NC1=NCCN1 [TIZANIDINE HYDROCHLORIDE] middle bin

----------
- Test system: Fibroblast
- Test: Multiplex assay against human fibroblast
- Type: toxicity, cell-based
- Test Parameters: 48 h, 1 µM, compound concentration 1 uM, replicate 1
# reported Population Mitochondria Different-Phenotype (%); entries follow
Answer with a number only, understood to be in %.

Name the recorded Population Mitochondria Different-Phenotype (%) of the molecule listed here: `c1cc(OCCCN2CCCCC2)ccc1CN1CCCCC1` 2

Name the recorded Population Mitochondria Different-Phenotype (%) of the molecule listed here: CCCN1CCC[C@@H]2Cc3n[nH]cc3C[C@H]21.Cl [QUINPIROLE HYDROCHLORIDE] 3

Name the recorded Population Mitochondria Different-Phenotype (%) of the molecule listed here: `CSCC[C@H](NC=O)C(=O)N[C@@H](CC(C)C)C(=O)N[C@@H](Cc1ccccc1)C(=O)O` 1

Name the recorded Population Mitochondria Different-Phenotype (%) of the molecule listed here: `O=C(NCC(=O)N1CC[C@H](N[C@H]2CC[C@@](O)(c3ccc(-c4ncccn4)cn3)CC2)C1)c1cccc(C(F)(F)F)c1` 2

Measured values drawn from ChEMBL document CHEMBL5058577 for this set.
